Source listed as ChEMBL document CHEMBL1201862.

Tested on: HL-60
ASSAY COMMENT: NCI tumour cell line growth inhibition, 48 h
The source made the active and inactive calls. Rule as the data show it: active = GI50 up to about 1.1 µM and inactive = higher.
Your reply should match one of these outcome classes. active, inactive

CC(C)OP(=O)(c1ccccc1)c1ccc2c(c1)OCCOCCOCCOCCO2 (stereo not given) : inactive
NS(=O)(=O)c1ccc(NCc2cnc3ccccc3c2)cc1 : active
O=C1CCCCC/C=C2/CC[C@H](Sc3ccccc3)[C@@H]12 : inactive
C/C(=N\NC(=O)c1ccncc1)c1sc(-n2nc(-c3ccccc3)cc2-c2ccccc2)nc1C : inactive
CN(C)CCCOC(=O)C(c1ccccc1)C1(O)CCSCC1 (stereo not given) : inactive

Input line: Hi, sorry to bother you, what did the test record for CCCCCCCCCCCCOCCOCCOCCOCCOCCOCC(=O)NC(Cc1ccccc1)C(=O)Oc1ccc([N+](=O)[O-])cc1 (stereo not given) ?
Output line: inactive

Input line: Hi, sorry to bother you, what did the test record for COc1cc(NC(C)=O)ccc1C(=O)NN1C(=O)C(Cl)C1c1ccco1 (stereo not given) ?
Output line: inactive

Input line: Hi, sorry to bother you, what did the test record for CNC(=O)C(C)C1CCC2(C)C=CC(=O)C(C)=C2C1O (stereo not given) ?
Output line: inactive

Input line: Hi, sorry to bother you, what did the test record for CCCCCCCCCCCC(=O)C1=C(O)CCC(O)C1=O (stereo not given) ?
Output line: inactive

Input line: Hi, sorry to bother you, what did the test record for `N#CC(=S)Nc1ccc(F)cc1` ?
Output line: inactive

Input line: Hi, sorry to bother you, what did the test record for `N/C(=N\c1c([N+](=O)[O-])cnc2ccccc12)N1CCOCC1` ?
Output line: inactive

Input line: Hi, sorry to bother you, what did the test record for COC(=O)[C@@]12C(=O)C=CC(=O)[C@@H]1C1C(=CC2COC(C)=O)O[C@@H]2OC3(CCCCC3)O[C@H]12 (stereo not given in full) ?
Output line: inactive

Input line: Hi, sorry to bother you, what did the test record for `COC(=O)c1c[nH]c2nc(N3CCOCC3)nn2c1=O` ?
Output line: inactive

Input line: Hi, sorry to bother you, what did the test record for `Fc1cccc(/C=N/C23CC4CC(CC(C4)C2)C3)c1` ?
Output line: inactive

###

Test system: MOLT-4
ASSAY COMMENT: NCI tumour cell line growth inhibition, 48 h
The source made the active and inactive calls. No stated cut-off is given here; in the data, active = GI50 up to about 1.1 µM and inactive = higher.
Your reply should match one of these outcome classes. label 1 for active, label 0 for inactive

Before answering, review these 5 worked examples.
CN1c2ccccc2N(C(=O)c2ccc([N+](=O)[O-])cc2)C(CC(=O)O)c2cccn21 (configuration not stated) : label 0
OC(C/C=N/N=C/CC(O)(C(F)(F)Cl)C(F)(F)Cl)(C(F)(F)Cl)C(F)(F)Cl : label 0
CCCCCCCCCCCCOCCOCCOCCOCCOCCOCC(=O)NC(Cc1ccccc1)C(=O)Oc1ccc([N+](=O)[O-])cc1 (configuration not stated) : label 0
CC1NOC(=O)C1/N=N/c1ccccc1Br (configuration not stated) : label 0
CC1(C)CC(=O)C(=CN2C(=O)CNC2=S)C(=O)C1 : label 0

Input line: Hi, sorry to bother you, what did the test record for N/N=C1/C(=O)N(c2ccc(Cl)cc2)C(=O)C(=O)C1c1nc2ccccc2s1 (configuration not stated) ?
Output line: label 0

Input line: Hi, sorry to bother you, what did the test record for `Fc1cccc(/C=N/C23CC4CC(CC(C4)C2)C3)c1` ?
Output line: label 0

Input line: Hi, sorry to bother you, what did the test record for `CN(C)CCNC(=O)c1cccc2cc3cc(O)ccc3nc12` ?
Output line: label 1

Input line: Hi, sorry to bother you, what did the test record for `O=C1/C(=C/c2ccc(Cl)cc2)NC(=S)N1CN1CCOCC1` ?
Output line: label 0

Input line: Hi, sorry to bother you, what did the test record for CC(=O)OC1CC2C(=O)CC1(C)C2(C)C (configuration not stated) ?
Output line: label 0

Input line: Hi, sorry to bother you, what did the test record for `Cc1nc(OCc2ccccc2)c2ncn(CCO)c2n1` ?
Output line: label 0

Input line: Hi, sorry to bother you, what did the test record for `Cc1ccc(S(=O)(=O)OCC(=O)O)cc1` ?
Output line: label 0

Input line: Hi, sorry to bother you, what did the test record for CC(C)OP(=O)(c1ccccc1)c1ccc2c(c1)OCCOCCOCCOCCO2 (configuration not stated) ?
Output line: label 0

Input line: Hi, sorry to bother you, what did the test record for `CS(=O)(=O)N/N=C/CN1C(=O)c2ccccc2C1=O` ?
Output line: label 0

Input line: Hi, sorry to bother you, what did the test record for CCC1OC(=O)CC(O)C(C)C(OC2OC(C)C(O)C(N(C)C)C2O)C(CC=O)CC(C)C(=O)/C=C/C2(C)OC2C1C (configuration not stated) ?
Output line: label 0

Input line: Hi, sorry to bother you, what did the test record for `COC(=O)c1s/c(=N\C(=S)N(C)C)n(-c2ccccc2)c1C(=O)OC` ?
Output line: label 0

Input line: Hi, sorry to bother you, what did the test record for `O=C1CCCCC/C=C2/CC[C@H](Sc3ccccc3)[C@@H]12` ?
Output line: label 0
